Origin of measurements: PubChem BioAssay AID624246

# TARGET_OR_SYSTEM: Transcriptional regulator ERG (Homo sapiens)
# ASSAY_COMMENT: qHTS for Small Molecule Inhibitors of the ERG Ets/DNA interaction
# SETUP_CONDITIONS: fluorescence polarization, His-ERG Ets domain / labelled DNA; series mostly up to 76.9 µM
Screen size: about 370,000 compounds; about 100 (0.027%) were called active. Calls come from the whole dose curve; as a rule, active = well fitted inhibition curve with a large enough effect in the polarisation, with a control signal flat; inconclusive = small, poorly fitted or top-dose-only effect, or effect the other way, or a change in a side signal; inactive = no such curve, though single readings can be large or run the other way; the % refers to the polarisation. Only a selection was taken, and actives are over-represented in it overall.
Outcome codes: active, inactive

> print(dat)
                                    compound                          target.or.system  assigned.category
 1  O=C(/C=C/c1cn(CC(O)CN2CCc3ccccc32)c2ccccc12)c1ccc(Br)cc1 (stereo not given)  Transcriptional regulator ERG (Homo sapiens)           inactive
 2  CCOc1ccccc1NC(=O)CN1CCCN(Cc2cccc(Cl)c2)S1(=O)=O  Transcriptional regulator ERG (Homo sapiens)           inactive
 3  CCN1C(=O)c2ccccc2S(=O)c2ccc(C(=O)NCc3ccc(F)cc3)cc21 (stereo not given)  Transcriptional regulator ERG (Homo sapiens)           inactive
 4  CCN(CCCNC(=O)c1cc(Nc2ccc(OC)cc2)nc2ccccc12)c1cccc(C)c1  Transcriptional regulator ERG (Homo sapiens)           inactive
 5        O=C(CNC(=O)c1ccco1)OCC(=O)c1ccccc1  Transcriptional regulator ERG (Homo sapiens)           inactive
 6  CCc1ccc(NS(=O)(=O)c2ccc3[nH]cc(C(=O)NCCc4cccc(C)c4)c(=O)c3c2)cc1  Transcriptional regulator ERG (Homo sapiens)           inactive
 7  Cc1cccc(C(=O)Nc2ccc(S(=O)(=O)N3CCCCC3c3cccnc3)cc2)c1 (stereo not given)  Transcriptional regulator ERG (Homo sapiens)           inactive
 8  CCOC(=O)c1ccc(NC(=O)C2CC(=O)N(c3ccc(C(C)C)cc3)C2)cc1 (stereo not given)  Transcriptional regulator ERG (Homo sapiens)           inactive
 9  O=C(CSc1oc(-c2ccco2)nc1S(=O)(=O)c1ccc(Cl)cc1)c1ccccc1  Transcriptional regulator ERG (Homo sapiens)           inactive
10  Cc1ccc(C(=O)Nc2ccc3[nH]c(=O)c(=O)[nH]c3c2)cc1  Transcriptional regulator ERG (Homo sapiens)           inactive
11  COc1cccc2c1C(=O)c1c(O)c3c(c(O)c1C2=O)CC(O)(C(C)=NNC(=O)c1ccc(Cl)c(Cl)c1)CC3OC1CC(N)C(O)C(C)O1 (stereo not given)  Transcriptional regulator ERG (Homo sapiens)             active
12  CCOC(=O)c1ccc(CN(Cc2ccccc2)S(=O)(=O)c2ccc(Cl)cc2)cc1  Transcriptional regulator ERG (Homo sapiens)           inactive
13  Cc1nn2c(=O)cc(COC(=O)c3cccc(NC(=O)COc4ccccc4Cl)c3)nc2s1  Transcriptional regulator ERG (Homo sapiens)           inactive
14  CCOC(=O)c1ccccc1NC(=O)c1nn(-c2ccc(OC)c(Cl)c2)c(=O)c2c1c1ccccc1n2C  Transcriptional regulator ERG (Homo sapiens)           inactive
15  O=C(CCc1ccccc1)NCc1ccc2c(c1)CCN2C(=O)c1ccccc1  Transcriptional regulator ERG (Homo sapiens)           inactive
16  COCCn1c(C)cc(C(=O)COC(=O)CNC(=O)c2ccco2)c1C  Transcriptional regulator ERG (Homo sapiens)             active
17  Cc1ccc(C(=O)CC2(O)C(=O)N(CCc3ccccc3)c3ccc(Br)cc32)cc1 (stereo not given)  Transcriptional regulator ERG (Homo sapiens)           inactive
18  COc1ccc(NC(C)=O)cc1NC(=O)CN1CCN(c2ccc(F)cc2)CC1  Transcriptional regulator ERG (Homo sapiens)           inactive
19  COc1ccc(OCC(=O)Nc2cccc(C(=O)OCc3cc(=O)n4nc(C)sc4n3)c2)cc1  Transcriptional regulator ERG (Homo sapiens)           inactive
20  O=C1N(Cc2ccccc2)c2ccc(Cl)cc2C1(O)c1c[nH]c2ccccc12 (stereo not given)  Transcriptional regulator ERG (Homo sapiens)           inactive
